biological target: T1, Ebola virus GP with a C-terminal polyhistidine tag (Sino Biologicals, Catalog #40442-V08B1) (Ebola virus, UniProt P87666 33-650); assay: SPR 25C, mAb captured
T1 construct: also called EbolaGP.his; Ebola virus GP.his
Exercise: for every item that follows, state its recorded kon.
Please reply with the bare figure in M⁻¹ s⁻¹ and do not write the unit itself.

Input line: Could you please provide reported kon for H1H17199P (antibody, V domains shown) VH: EVQLVESGGGLVQPGGSLRLSCAASGFTFSDHYMVWVRQAPGKGLEWVGRTRNKANSYSTEYAASVKGRFTISRDDSKKSLYLQMNSLKTEDTAVYYCARGGETLWFGESNYGMDVWGQGTTVTVSS VL: EIVLTQSPDTLSLSPGERATLSCRASQSVSSTYLAWYQQKPGQAPSLLIYGASSRATGIPDRFSGSGSGTDFTLTISRLEPEDFAVYYCQQYGRSPLTFGGGTKVEIK ? Thanks!
Output line: 12500

Input line: Provide kon value for the following binder: H1H17214P (antibody, V domains shown) VH: EVQLVESGGGLVQPGGSLRLSCAASKFTFDTFAMSWVRQAPGKGLEWVSFISSSGGRTDYVDSVKGRFTISRDNSKNTLYLQMNSLRAEDTAVYYCAKERTIFGVLILGPDNYGMDVWGQGTTVTVSS VL: DIQMTQSPSSLSAFVGDRVTITCRASQSISTYLNWYQQKPGKAPKLLIYAASSLQSGVSSRFSGSGSGTDFTLTISSLQPEDFATYYCQQSYSAPPITFGQGTRLEIK
Output line: 37600

Input line: Using known records, supply kon for H1H17203P (antibody, V domains shown) VH: QVQLVESGGGVVQPGRSLRLSCAASGFTFNNYGMHWVRQAPGMGLEWVAVIWHDGSDKYYADSVKGRFTISRDNSKNTLYLQMNSLRAEDTAVYYCARNWNLFDYWGQGTLVTVSS VL: DIQMTQSPSSLSASVGDRITITCRASQSISTYLHWYQQKPGKAPKLLIYAASTLQSGVPSRFSGSGSGTDFTLTISSLQPEDFATYYCQQSFSTPPINFGQGTKLEIK
Output line: 27800
